Cited source: ChEMBL document CHEMBL1201862

Tested on: HOP-92
Test: NCI tumour cell line growth inhibition, 48 h
Calls of active or inactive are those of the source. Rule as the data show it: active = GI50 up to about 1.1 µM and inactive = higher.
# GI50 per entry

[Q] Test system HOP-92; read-out GI50; what value for O=C1CNCCCN2CCN(CCCNCC(=O)Nc3ccc(cc3)S(=O)(=O)c3ccc(cc3)NC(=O)CNCCCN3CCN(CCCNCC(=O)Nc4ccc(cc4)S(=O)(=O)c4ccc(cc4)N1)CC3)CC2 ?
[A] 28.1 µM (inactive)

[Q] Test system HOP-92; read-out GI50; what value for COc1nc(NC2OCC(OC(C)=O)C(OC(C)=O)C2OC(C)=O)c(/N=C(\C)C(C)=O)c(=O)n1C (centres undefined) ?
[A] > 100 µM (inactive)

[Q] Test system HOP-92; read-out GI50; what value for O=C(O)CCCc1nc2c(n1Cc1ccccc1)C(=O)c1ccccc1C2=O ?
[A] 48.9 µM (inactive)

[Q] Test system HOP-92; read-out GI50; what value for COC(=O)CCC(=O)C(CC(=O)OC)C(=O)CCC(=O)NCCc1ccccc1 (centres undefined) ?
[A] > 100 µM (inactive)

[Q] Test system HOP-92; read-out GI50; what value for c1ccc(C2=C(c3ccccc3)P(c3ccccc3)C2)cc1 (centres undefined) ?
[A] > 100 µM (inactive)

[Q] Test system HOP-92; read-out GI50; what value for COc1ccc(/N=N/c2c(C)c(C#N)c(=S)n(C3OC(COC(C)=O)C(OC(C)=O)C(OC(C)=O)C3OC(C)=O)c2C)cc1 (centres undefined) ?
[A] 24.6 µM (inactive)
